B1: TRIM55 (parent)
chain: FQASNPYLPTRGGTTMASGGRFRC

variants of: B1; experiment: protein stability index of a GFP-peptide fusion (GPS, HEK-293T) (PSI 1-6); higher = more stable; conditions: c terminus: a fixed tail appended;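 also: lentivirally expressed fusions sorted by FACS into six bins by GFP to DsRed ratio, PSI derived from sequencing read proportions per bin multiplied by bin number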
The variants listed here are annotated with their protein stability index.
Please reply with the value in numeric form only.

mutationlabel=G12I numericreadout=2.77

Could you share which protein stability index value was measured for `Q2A` ?
2.17

Could you share which protein stability index value was measured for `S18F` ?
1.95
